tested on: ATP; experiment: switch fluorescence ratio, 500 uM ATP over buffer (Cy3 cluster intensity, sum of 5 cycles each) (fold (ratio)); higher = stronger signal-on switching upon ATP binding; sequences stand for … in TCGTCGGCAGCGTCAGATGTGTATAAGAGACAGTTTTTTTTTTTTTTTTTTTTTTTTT…TC; conditions: aptamer strand: ATP DNA aptamer (quencher-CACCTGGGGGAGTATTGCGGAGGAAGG + anchor), 100 nM annealed; ATP concentration: 500 uM;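 also: ATP exposure 15 min at 22 °C before imaging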

MACROMOLECULE SEQUENCE: GAGGATTGTG
switch fluorescence ratio: 0.976

MACROMOLECULE SEQUENCE: TTAAATTTTT
switch fluorescence ratio: 1.01

MACROMOLECULE SEQUENCE: TGGCTTGAGT
switch fluorescence ratio: 1.12

MACROMOLECULE SEQUENCE: TAGTTATGGT
switch fluorescence ratio: 1.04

MACROMOLECULE SEQUENCE: AGCAGGAGCC
switch fluorescence ratio: 1.06

MACROMOLECULE SEQUENCE: TCGGGTGCGA
switch fluorescence ratio: 1.04

MACROMOLECULE SEQUENCE: GCAGGGTTCT
switch fluorescence ratio: 0.972

MACROMOLECULE SEQUENCE: AGGGTGAATT
switch fluorescence ratio: 0.985

MACROMOLECULE SEQUENCE: ACGGTTAAGG
switch fluorescence ratio: 1.03

MACROMOLECULE SEQUENCE: GTTGATGTAG
switch fluorescence ratio: 0.984

MACROMOLECULE SEQUENCE: TTTTATGAAA
switch fluorescence ratio: 0.997

MACROMOLECULE SEQUENCE: CGTTGAGGTT
switch fluorescence ratio: 0.979

MACROMOLECULE SEQUENCE: TGGGTTGGAT
switch fluorescence ratio: 0.99

MACROMOLECULE SEQUENCE: AGGGTCCCGC
switch fluorescence ratio: 0.993

MACROMOLECULE SEQUENCE: TCGAACTGAT
switch fluorescence ratio: 1.02

MACROMOLECULE SEQUENCE: TTTTCTTTTT
switch fluorescence ratio: 1.06

MACROMOLECULE SEQUENCE: GCTGGGGGTG
switch fluorescence ratio: 1.01

MACROMOLECULE SEQUENCE: TTTTGACCGA
switch fluorescence ratio: 0.976

MACROMOLECULE SEQUENCE: TTTTGAAGTG
switch fluorescence ratio: 1.02

MACROMOLECULE SEQUENCE: TACATTAATT
switch fluorescence ratio: 1.02

----------
test system: ATP; assay: switch fluorescence ratio, 500 uM ATP over buffer (Cy3 cluster intensity, sum of 5 cycles each) (fold (ratio)); higher = stronger signal-on switching upon ATP binding; sequences stand for … in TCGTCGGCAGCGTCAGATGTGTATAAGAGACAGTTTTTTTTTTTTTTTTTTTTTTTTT…TC; conditions: aptamer strand: ATP DNA aptamer (quencher-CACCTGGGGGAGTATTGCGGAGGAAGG + anchor), 100 nM annealed; ATP concentration: 500 uM;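 also: ATP exposure 15 min at 22 °C before imaging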
ASSAY READOUT: switch fluorescence ratio

MACROMOLECULE SEQUENCE: CGGGATCGTC
ASSAY READOUT: switch fluorescence ratio
NUMERIC VALUE: 0.977

MACROMOLECULE SEQUENCE: ATGGTGTTCG
ASSAY READOUT: switch fluorescence ratio
NUMERIC VALUE: 0.987

MACROMOLECULE SEQUENCE: AGGTTGTTTG
ASSAY READOUT: switch fluorescence ratio
NUMERIC VALUE: 1.01

MACROMOLECULE SEQUENCE: GTTTAGGCCC
ASSAY READOUT: switch fluorescence ratio
NUMERIC VALUE: 1

MACROMOLECULE SEQUENCE: CGATAGAAGT
ASSAY READOUT: switch fluorescence ratio
NUMERIC VALUE: 1.01

MACROMOLECULE SEQUENCE: CGGGGGCATA
ASSAY READOUT: switch fluorescence ratio
NUMERIC VALUE: 1

MACROMOLECULE SEQUENCE: GGTAGCGAAA
ASSAY READOUT: switch fluorescence ratio
NUMERIC VALUE: 1.01

MACROMOLECULE SEQUENCE: ATAAGTGGTT
ASSAY READOUT: switch fluorescence ratio
NUMERIC VALUE: 0.995

MACROMOLECULE SEQUENCE: ACTCCTCTTT
ASSAY READOUT: switch fluorescence ratio
NUMERIC VALUE: 1.09

MACROMOLECULE SEQUENCE: TTTAGGGTAT
ASSAY READOUT: switch fluorescence ratio
NUMERIC VALUE: 1.01

MACROMOLECULE SEQUENCE: TTCGGGCGTC
ASSAY READOUT: switch fluorescence ratio
NUMERIC VALUE: 1.01

MACROMOLECULE SEQUENCE: TAGAGGCCTG
ASSAY READOUT: switch fluorescence ratio
NUMERIC VALUE: 1.04

MACROMOLECULE SEQUENCE: GGGATTATTT
ASSAY READOUT: switch fluorescence ratio
NUMERIC VALUE: 0.972

MACROMOLECULE SEQUENCE: ATCATGGCTT
ASSAY READOUT: switch fluorescence ratio
NUMERIC VALUE: 1.03

MACROMOLECULE SEQUENCE: GACAAAGGAT
ASSAY READOUT: switch fluorescence ratio
NUMERIC VALUE: 1.04

MACROMOLECULE SEQUENCE: AGTGTTGGCC
ASSAY READOUT: switch fluorescence ratio
NUMERIC VALUE: 1.02

MACROMOLECULE SEQUENCE: GGGAGCGGGT
ASSAY READOUT: switch fluorescence ratio
NUMERIC VALUE: 1.04

MACROMOLECULE SEQUENCE: ATGGGACAGC
ASSAY READOUT: switch fluorescence ratio
NUMERIC VALUE: 0.975

MACROMOLECULE SEQUENCE: TATTTTTGCT
ASSAY READOUT: switch fluorescence ratio
NUMERIC VALUE: 0.981

MACROMOLECULE SEQUENCE: ATGCCTGGGC
ASSAY READOUT: switch fluorescence ratio
NUMERIC VALUE: 1.03

MACROMOLECULE SEQUENCE: CAGTGGATCG
ASSAY READOUT: switch fluorescence ratio
NUMERIC VALUE: 1.01

MACROMOLECULE SEQUENCE: GTGTAATTAG
ASSAY READOUT: switch fluorescence ratio
NUMERIC VALUE: 0.982

MACROMOLECULE SEQUENCE: CATTACAGTG
ASSAY READOUT: switch fluorescence ratio
NUMERIC VALUE: 1.01

MACROMOLECULE SEQUENCE: CGCCGGAGGA
ASSAY READOUT: switch fluorescence ratio
NUMERIC VALUE: 0.97

MACROMOLECULE SEQUENCE: TAGATAAATT
ASSAY READOUT: switch fluorescence ratio
NUMERIC VALUE: 0.997

MACROMOLECULE SEQUENCE: AGTTGTTTGG
ASSAY READOUT: switch fluorescence ratio
NUMERIC VALUE: 1

MACROMOLECULE SEQUENCE: ATATGGGAAG
ASSAY READOUT: switch fluorescence ratio
NUMERIC VALUE: 1

MACROMOLECULE SEQUENCE: AGGGGGATCT
ASSAY READOUT: switch fluorescence ratio
NUMERIC VALUE: 1.03

MACROMOLECULE SEQUENCE: AAGTACTTTT
ASSAY READOUT: switch fluorescence ratio
NUMERIC VALUE: 1.2

MACROMOLECULE SEQUENCE: CTTCCGGAGG
ASSAY READOUT: switch fluorescence ratio
NUMERIC VALUE: 1.9

MACROMOLECULE SEQUENCE: AACGAAGGTA
ASSAY READOUT: switch fluorescence ratio
NUMERIC VALUE: 0.988

MACROMOLECULE SEQUENCE: GGGAGAGCGG
ASSAY READOUT: switch fluorescence ratio
NUMERIC VALUE: 0.966

MACROMOLECULE SEQUENCE: CATTTTTAAG
ASSAY READOUT: switch fluorescence ratio
NUMERIC VALUE: 1

MACROMOLECULE SEQUENCE: TTGGGGTTCA
ASSAY READOUT: switch fluorescence ratio
NUMERIC VALUE: 0.975

MACROMOLECULE SEQUENCE: GAATCGATTT
ASSAY READOUT: switch fluorescence ratio
NUMERIC VALUE: 1.02

MACROMOLECULE SEQUENCE: CGTCTGATAG
ASSAY READOUT: switch fluorescence ratio
NUMERIC VALUE: 0.99

MACROMOLECULE SEQUENCE: CGCAAAAGGG
ASSAY READOUT: switch fluorescence ratio
NUMERIC VALUE: 1.54

MACROMOLECULE SEQUENCE: GTCTACTGCT
ASSAY READOUT: switch fluorescence ratio
NUMERIC VALUE: 1.07

MACROMOLECULE SEQUENCE: TTTTCCATTT
ASSAY READOUT: switch fluorescence ratio
NUMERIC VALUE: 0.99

MACROMOLECULE SEQUENCE: GATTTGGGT
ASSAY READOUT: switch fluorescence ratio
NUMERIC VALUE: 0.997

MACROMOLECULE SEQUENCE: ATGAGTATTT
ASSAY READOUT: switch fluorescence ratio
NUMERIC VALUE: 0.979

MACROMOLECULE SEQUENCE: GGCATTTAAA
ASSAY READOUT: switch fluorescence ratio
NUMERIC VALUE: 0.983

MACROMOLECULE SEQUENCE: TGTGGGAATT
ASSAY READOUT: switch fluorescence ratio
NUMERIC VALUE: 1.01
